# experiment: physchem
# experimental-context: pH 4.5, aqueous buffer, kinetic from dmso stock, Solubility (pH 4.5)

# compound, readout-unit, solubility at 24 h
data = [
    ("CO[C@H]1CN(c2nc(-c3cccc(Cl)c3OCc3ccc4c(c3C)CCN(C3CCOCC3)C4)cs2)CC[C@H]1C(=O)O", "µg/mL", 88.6),
    ("Cc1ccc(OCc2ccc3c(c2C)CCN(C2COC2)C3)c(-c2cccc(N3C[C@@H]4C[C@]4(C(=O)O)C3)n2)c1", "µg/mL", 84),
    ("Cc1ccc(OCc2cc(C)c3c(c2C)CCN(C2COC2)C3)c(-c2csc(N3CC[C@@]4(C(=O)O)C[C@H]4C3)n2)c1", "µg/mL", 2.8),
    ("CO[C@@H]1CN(c2cccc(-c3cccc(C)c3OCc3cc(C)c4c(c3)CN(C3CCOCC3)C4)n2)CC[C@@H]1C(=O)O", "µg/mL", 106),
    ("Cc1ccc(OCc2cc(C)c3c(c2C)CCN(CC2COCCO2)C3)c(-c2csc(N3CC[C@@]4(C(=O)O)C[C@H]4C3)n2)c1 (stereo partly shown)", "µg/mL", 17),
    ("CO[C@H]1CN(c2nc(-c3cccc(C)c3OCc3ccc4c(c3C)CCN(C3CCOCC3)C4)cs2)CC[C@H]1C(=O)O", "µg/mL", 86),
    ("CO[C@H]1CN(c2cccc(-c3cccc(C)c3OCc3ccc4c(c3C)CCN(C3CCOCC3)CC4)n2)CC[C@@H]1C(=O)O", "µg/mL", 77.2),
    ("CCc1cc(COc2c(C)cccc2-c2cccc(N3C[C@@H]4C[C@]4(C(=O)O)[C@H]3COC)n2)cc2c1CN(C1CCOCC1)CC2", "µg/mL", 110),
    ("COC[C@H]1N(c2nc(-c3cc(C)ccc3OCc3ccc4c(c3)CCN(C3CCOCC3)C4)cs2)C[C@@H]2C[C@@]21C(=O)O", "µg/mL", 77),
    ("COC[C@H]1N(c2cccc(-c3cccc(C)c3OCc3ccc4c(c3C)CCN(C3COC3)C4)n2)C[C@@H]2C[C@@]21C(=O)O", "µg/mL", 95),
    ("Cc1ccc(OCc2ccc3c(c2C)CCN(C2CCOC2)C3)c(-c2csc(N3CC[C@@]4(C(=O)O)C[C@H]4C3)n2)c1 (stereo partly shown)", "µg/mL", 18),
    ("CCO[C@H]1CN(c2nc(-c3cc(C)ccc3OCc3cc4c(c(OC)c3)CN(C3CCOCC3)CC4)cs2)CC[C@H]1C(=O)O", "µg/mL", 124),
    ("CCO[C@@H]1CN(c2cccc(-c3cc(C)ccc3OCc3ccc4c(c3C)CCN(C3CCOCC3)CC4)n2)CC[C@@H]1C(=O)O", "µg/mL", 118),
    ("COC[C@H]1N(c2cccc(-c3cccc(C)c3OCc3ccc4c(c3F)CCN(C3CCOCC3)CC4)n2)C[C@@H]2C[C@@]21C(=O)O", "µg/mL", 94.9),
    ("Cc1cccc(-c2csc(N3C[C@@H]4C[C@]4(C(=O)O)C3)n2)c1OCc1ccc2c(c1)CCN(C1CCOCC1)C2", "µg/mL", 70),
    ("CCO[C@@H]1CN(c2cccc(-c3cc(C)ccc3OCc3cc4c(c(OC)c3)CN(C3CCOCC3)CC4)n2)CC[C@@H]1C(=O)O", "µg/mL", 126),
    ("CO[C@H]1CN(c2nc(-c3cccc(C)c3OCc3cc(C)c4c(c3)CCN(C3CCOCC3)C4)cs2)CC[C@H]1C(=O)O", "µg/mL", 84),
    ("COC[C@@H]1N(c2cccc(-c3cccc(C)c3OCc3cc(C)c4c(c3)CCN(C3CCOCC3)C4)n2)C[C@@H]2C[C@@]21C(=O)O", "µg/mL", 130),
    ("Cc1ccc(OCc2ccc3c(c2C)CCN(C2COC2)CC3)c(-c2csc(N3C[C@@H]4C[C@]4(C(=O)O)C3)n2)c1", "µg/mL", 37),
    ("Cc1c(COc2ccccc2-c2cccc(N3CC[C@@]4(C(=O)O)C[C@H]4C3)n2)ccc2c1CCN(C1CCC1)C2", "µg/mL", 43.5),
    ("COC[C@H]1N(c2nc(-c3cccc(C)c3OCc3cc(C)c4c(c3)CCN(C3CCOCC3)C4)cs2)C[C@@H]2C[C@@]21C(=O)O", "µg/mL", 82),
    ("COC[C@H]1N(c2cccc(-c3cccc(C)c3OCc3ccc4c(c3F)CCN(C3COC3)CC4)n2)C[C@@H]2C[C@@]21C(=O)O", "µg/mL", 82.8),
    ("CO[C@H]1CN(c2cccc(-c3cccc(C)c3OCc3cc(F)c4c(c3)CCN(C3COC3)CC4)n2)CC[C@H]1C(=O)O", "µg/mL", 72),
    ("CO[C@@H]1CN(c2nc(-c3cccc(C)c3OCc3ccc4c(c3C)CCN(C3COC3)C4)cs2)CC[C@@H]1C(=O)O", "µg/mL", 79),
    ("CO[C@@H]1CN(c2cccc(-c3cccc(C)c3OCc3ccc4c(c3C)CCN([C@H]3CCOC3)CC4)n2)CC[C@@H]1C(=O)O", "µg/mL", 105),
]

----------
# experiment: physchem
# experimental-context: pH 4.5, aqueous buffer, kinetic from dmso stock, Solubility (pH 4.5)
// classify(record): look up solubility at 24 h in ranges lo = under 40 µg/mL, mid = from 40 µg/mL up to 100 µg/mL, hi = 100 µg/mL and over

# molecule, assigned-category
rows = [
    ("Cc1cccc(-c2cccc(N3C[C@@H]4C[C@]4(C(=O)O)C3)n2)c1OCc1ccc2c(c1)CCN(C1CCOCC1)CC2 [Compound 31]", "mid"),
    ("CCc1cc(COc2ccc(C)cc2-c2cccc(N3CC[C@H](C(=O)O)[C@H](OC)C3)n2)cc2c1CN(C1CCOCC1)CC2 [Compound 79]", "hi"),
    ("Cc1cccc(-c2cccc(N3C[C@@H]4C[C@]4(C(=O)O)C3)n2)c1OCc1ccc2c(c1)CCN(C1CCOCC1)C2 [Compound 20]", "mid"),
    ("Cc1cccc(-c2csc(N3C[C@H]4C[C@@]4(C(=O)O)[C@@H]3C)n2)c1OCc1ccc2c(c1C)CCN(C1COC1)C2 [Compound 156]", "lo"),
    ("CCO[C@@H]1CN(c2cccc(-c3cccc(C)c3OCc3cc4c(c(OC)c3)CN(C3CCOCC3)CC4)n2)CC[C@@H]1C(=O)O [Compound 230]", "hi"),
    ("CO[C@@H]1CN(c2cccc(-c3cc(C)ccc3OCc3cc(C)c4c(c3)CCN(C3CCOCC3)C4)n2)CC[C@@H]1C(=O)O [Compound 76]", "hi"),
    ("Cc1c(COc2ccccc2-c2ccnc(N3CC[C@@]4(C(=O)O)C[C@H]4C3)n2)ccc2c1CCN(C1CCOCC1)C2 [Compound 185]", "mid"),
    ("COCc1cc(COc2c(C)cccc2-c2cccc(N3C[C@@H]4C[C@]4(C(=O)O)[C@H]3COC)n2)cc2c1CN(C1CCOC1)CC2 (stereo partly shown) [Compound 280]", "mid"),
    ("Cc1ccc(OCc2cc(C)c3c(c2C)CCN(C2CCOC2)C3)c(-c2csc(N3CC[C@@]4(C(=O)O)C[C@H]4C3)n2)c1 (stereo partly shown) [Compound 129]", "lo"),
    ("CO[C@H]1CN(c2nc(-c3cc(C)ccc3OCc3cc(C)c4c(c3F)CCN(C3CCOCC3)C4)cs2)CC[C@H]1C(=O)O [Compound 253]", "lo"),
    ("COCc1cc(COc2c(C)cccc2-c2cccc(N3CC[C@H](C(=O)O)[C@H](OC)C3)n2)cc2c1CN(C1CCOCC1)CC2 [Compound 286]", "hi"),
]

----------
# experiment: Human liver microsome (HLM) metabolic stability assay
# Type: in vitro ADME
# experimental-context: human liver microsomes
measured-property: Metabolic stability (Qh %), % hepatic blood flow

# compound, readout-unit, result-comparator, numeric-readout
rows = [
    ("Cc1ccc(OCc2ccc3c(c2)CCN(C2CCC(F)(F)CC2)C3)c(-c2csc(N3C[C@H]4CC[C@@H](C3)[C@H]4C(=O)O)n2)c1 [Compound 183]", "%", "=", 42),
    ("Cc1ccc(OCc2ccc3c(c2)CCCN(C2CCOCC2)C3)c(-c2csc(N3CC[C@@]4(C(=O)O)C[C@H]4C3)n2)c1 [Compound 199]", "%", "=", 46),
    ("CO[C@H]1CN(c2nc(-c3cccc(C)c3OCc3ccc4c(c3)[C@@H](C)CN(C3CCOCC3)CC4)cs2)CC[C@H]1C(=O)O [Compound 312]", "%", "<", 24),
    ("Cc1cccc(-c2csc(N3CC[C@@]4(C(=O)O)C[C@H]4C3)n2)c1OCc1ccc2c(c1)CCN(C1COC1)C2 [Compound 85]", "%", "=", 29),
    ("Cc1cc(COc2c(C)cccc2-c2csc(N3CC[C@@]4(C(=O)O)C[C@H]4C3)n2)c(C)c2c1CN(C1COC1)CC2 [Compound 102]", "%", "=", 52),
    ("COC[C@H]1N(c2cccc(-c3cccc(C)c3OCc3ccc4c(c3F)CCN(C3COC3)CC4)n2)C[C@@H]2C[C@@]21C(=O)O [Compound 263]", "%", "<", 24),
]
